Tested on: RPMI-8226 leukemia
Assay: NCI-60 one-dose screen, 48 h
Settings: 10 µM unless noted
About 83,000 compounds went through this panel and 20% of them were active in at least one assay; those are over-represented in the sample as a whole. Activity calls are given as the source filed them. How the source made its calls: active means growth percent below 10; inactive means the rest.
Labels: active, inactive

>  <molecule>
CCn1c(C)nc2cc(C(N)=O)ccc21

>  <class name>
inactive

$$$$
>  <molecule>
C#CCOc1nc(C)cc(C)c1C#N

>  <class name>
inactive

$$$$
>  <molecule>
CCCCCCCCCCCC(c1ccccc1)[N+](C)(C)C (stereo unspecified)

>  <class name>
active

$$$$
>  <molecule>
CC(C)(C)OC(=O)Nc1ccc2c(c1)C(NC(=O)Nc1cccc(C#N)c1)CC(C)(C)O2 (stereo unspecified)

>  <class name>
inactive

$$$$
>  <molecule>
C=CCn1c(C)nc2cc(Nc3nc(N4CCCC4)nc4ccccc34)ccc21

>  <class name>
inactive

$$$$
>  <molecule>
COc1cc(/C=C/C(=O)N2CCN(C(=O)c3cc(OC)c(OC)c(OC)c3)CC2)ccc1OCCCN1C(=O)c2cccc3cccc(c23)C1=O

>  <class name>
inactive

$$$$
>  <molecule>
C#Cc1cccc(NC(=O)c2ccc(NC(=O)CCl)cc2)c1

>  <class name>
active

$$$$
>  <molecule>
CCN1C(=O)N(CC)C2Nn3c(s/c(=C\c4cccc([N+](=O)[O-])c4)c3=O)=NC21 (stereo unspecified)

>  <class name>
inactive

$$$$
>  <molecule>
Cc1cc(NCCCCNc2ccnc3cc(Cl)ccc23)nc(Nc2ccc(C(=O)N3CCCCC3)cc2)n1

>  <class name>
active

$$$$
>  <molecule>
COc1cccc(-c2nc3sccn3c2-c2ccnc(NCCNS(=O)(=O)c3cccc(Cl)c3)c2)c1

>  <class name>
active

$$$$
>  <molecule>
NNC(=O)c1nc(N)n(-c2ccc(S(N)(=O)=O)cc2)n1

>  <class name>
inactive

$$$$
>  <molecule>
Cc1ccccc1NC(=O)N/C(N)=N/c1nc(C)c(C)s1

>  <class name>
active

$$$$
>  <molecule>
Cc1ccc(Cl)cc1NC(=O)c1cc2ccccc2cc1O

>  <class name>
active

$$$$
>  <molecule>
CN(C)CC1=NC2SC=C(c3ccccc3)C2C(=O)N1CC#N (stereo unspecified)

>  <class name>
inactive

$$$$
>  <molecule>
CCCCCCCOc1c(OC)cc(C2CC(=O)Nc3c2c(C)nn3-c2nc3ccccc3[nH]2)cc1OC (stereo unspecified)

>  <class name>
active

$$$$
>  <molecule>
COC(=O)[C@]12CC[C@@H](C)[C@H](C)[C@@H]1C1=CC[C@@H]3[C@@]4(C)C(C=O)=C[C@@](C)(COC(C)=O)[C@@H]4C(=O)C[C@@]3(C)[C@]1(C)CC2

>  <class name>
inactive

$$$$
>  <molecule>
CCOC(=O)c1c(/C=C/C(=O)O)nc2ccccc2c1/C=C/c1ccccc1

>  <class name>
inactive

$$$$
>  <molecule>
O=c1[nH]nc(-c2ccccc2)c2c(-c3ccccc3)onc12

>  <class name>
inactive

$$$$
>  <molecule>
O=c1cc(C2NNC(=S)N2)c2ccc3ccccc3c2o1 (stereo unspecified)

>  <class name>
inactive

$$$$
>  <molecule>
N#Cc1c(N)nc(NCCO)nc1-c1ccc(F)cc1

>  <class name>
inactive

$$$$
>  <molecule>
COc1ccc(CN2C(=O)C(Cl)=C(Nc3cccc(C(F)(F)F)c3)C2=O)cc1

>  <class name>
inactive

$$$$
